// cross-study collection: pIC50 for Cytochrome P450 2C9 (Homo sapiens, UniProt P11712)
pIC50: −log10 of the molar value.
quantity name: pIC50

compound=COC(=O)COc1cccc(C(C)=NOCc2ccc([N+](=O)[O-])cc2)c1 quantity_name=pIC50 prefix_operator=< result_value=4.30
compound=COc1cc(O)cc2c1C(=O)C[C@@H](c1ccccc1)O2 quantity_name=pIC50 prefix_operator== result_value=4.90
compound=O=Cc1c(O)cccc1OCc1cccc(CO)n1 quantity_name=pIC50 prefix_operator=< result_value=4.00
compound=COc1c(O)c(C)cc2c1C(=O)c1c(O)cccc1C2=O quantity_name=pIC50 prefix_operator== result_value=4.97
compound=COc1ccc(CNc2nc(N3CCC[C@H]3CO)ncc2C(=O)NCc2ccccn2)cc1Cl quantity_name=pIC50 prefix_operator== result_value=4.66
compound=O=S1(=O)COc2cc(-c3ccc(OCC4CCN(c5ncc(Cl)cn5)CC4)nc3)ccc21 quantity_name=pIC50 prefix_operator=< result_value=5.00
compound=CC1(C)[C@@H](O)CC[C@]2(C)[C@H]3C(=O)C=C4[C@@H]5C[C@@](C)(C(=O)O)CC[C@]5(C)CC[C@@]4(C)[C@]3(C)CC[C@@H]12 quantity_name=pIC50 prefix_operator== result_value=4.58
compound=N#Cc1cccc(-c2noc(-c3cccnc3)n2)c1 quantity_name=pIC50 prefix_operator=< result_value=4.52
compound=Cc1c(-c2cc3ccccc3n2Cc2ccc(F)cc2)nc2cc(C(=O)N3CCC[C@@H](N)C3)ccn12 quantity_name=pIC50 prefix_operator=< result_value=5.00
compound="CC(C(=O)c1ccc(O)cc1O)c1ccc(O)cc1 (stereo not shown)" quantity_name=pIC50 prefix_operator== result_value=5.18
